Each entry below carries its recorded Absorbance 450 nm.
# target_under_test: T1, recombinant mouse α5β1 integrin (mouse, UniProt P11688 45-999; P09055 21-728)
# T1 construct: bought recombinant heterodimer (R&D Systems cat. 7728-A5) coated on the plate; also called rm-α5β1
# experiment_summary: ELISA, coated integrin, supernatant 1:10
Write the number in A450 without appending the unit.

A selection of reference data follows.
binder: A-4G02 (antibody, V domains shown, mouse hybridoma supernatant) VH: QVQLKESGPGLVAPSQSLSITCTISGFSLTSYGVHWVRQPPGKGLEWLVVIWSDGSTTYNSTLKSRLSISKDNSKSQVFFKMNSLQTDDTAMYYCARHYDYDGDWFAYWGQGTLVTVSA VL: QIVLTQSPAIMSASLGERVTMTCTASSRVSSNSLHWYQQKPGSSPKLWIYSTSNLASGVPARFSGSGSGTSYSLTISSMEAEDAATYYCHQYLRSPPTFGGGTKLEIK
Absorbance 450 nm [A450]: 0.0959

binder: A-15B08 (antibody, V domains shown, mouse hybridoma supernatant in this assay) VH: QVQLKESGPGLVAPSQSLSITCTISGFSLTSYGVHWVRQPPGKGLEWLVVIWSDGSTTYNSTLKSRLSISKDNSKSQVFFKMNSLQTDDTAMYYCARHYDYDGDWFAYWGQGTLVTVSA VL: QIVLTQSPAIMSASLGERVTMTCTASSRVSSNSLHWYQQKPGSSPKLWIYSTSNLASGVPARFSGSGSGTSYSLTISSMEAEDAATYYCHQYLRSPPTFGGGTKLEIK
Absorbance 450 nm [A450]: 0.0924

Now, please, on to the next binder.
Prompt line: I would be grateful if you could share the reported Absorbance 450 nm for C-14D12 (antibody, V domains shown, mouse hybridoma supernatant in this assay) VH: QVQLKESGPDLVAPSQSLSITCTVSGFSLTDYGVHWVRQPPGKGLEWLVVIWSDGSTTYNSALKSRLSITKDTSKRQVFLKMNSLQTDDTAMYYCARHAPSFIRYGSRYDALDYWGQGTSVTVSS VL: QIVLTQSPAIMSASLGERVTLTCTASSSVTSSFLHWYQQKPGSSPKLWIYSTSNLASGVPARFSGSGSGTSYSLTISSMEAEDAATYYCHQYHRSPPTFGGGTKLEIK .
Response line: 0.17
